Biological target: SMYD2 (Homo sapiens, UniProt Q9NRG4)
Sequence (Q9NRG4 whole entry): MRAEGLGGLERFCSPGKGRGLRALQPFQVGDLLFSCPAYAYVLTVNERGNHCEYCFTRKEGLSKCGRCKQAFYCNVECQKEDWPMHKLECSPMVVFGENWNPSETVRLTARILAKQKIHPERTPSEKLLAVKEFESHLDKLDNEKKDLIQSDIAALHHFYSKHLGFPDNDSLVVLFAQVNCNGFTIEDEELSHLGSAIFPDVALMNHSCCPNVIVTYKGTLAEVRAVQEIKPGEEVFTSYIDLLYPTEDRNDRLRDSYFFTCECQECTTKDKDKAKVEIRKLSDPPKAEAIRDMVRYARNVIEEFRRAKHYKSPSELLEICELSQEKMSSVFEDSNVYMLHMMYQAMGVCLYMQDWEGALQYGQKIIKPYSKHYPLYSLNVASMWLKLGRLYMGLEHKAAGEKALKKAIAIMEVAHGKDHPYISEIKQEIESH
Experiment: Scintillation Proximity Assay (SPA) for detection of SMYD2 enzymatic inhibition
Type: biochemical
Parameters: The SMYD2 full length enzyme was produced in-house by expression (with an N-terminal 6× His tag) in E. coli; 6xHis (N); made in house; host or cells: E. coli
Settings: SMYD2 full length enzyme, p53 Peptide substrate 1.0 μM, 3H-SAM 60 nM; read-out: IC50 [mol/l] (SPA Assay)
Criterion: IC50 strictly less than 200 nM. Met: satisfied. Not met: not satisfied.

Input: I wonder whether N#C/N=C(/Nc1cccc(OC(F)F)c1)N1CC(NC(=O)C2(N)CCCCC2)C(c2ccc(Cl)c(Cl)c2)=N1 (racemic) has IC50 below 200 nM. Can you tell?
Output: not satisfied

Input: hey, is IC50 for CCN(C(=O)[C@@H]1CCC[C@@H]1N)C1CN(/C(=N\C#N)Nc2cc(OC)cc(C(F)(F)F)c2)N=C1c1ccc(Cl)c(Cl)c1 (mixture of isomers) lower than 200 nM or not?
Output: not satisfied

Input: Does the reported IC50 of the following compound sit strictly below 200 nM? CCN(C(=O)[C@H]1CCCN1)C1CN(/C(=N\C#N)Nc2cccc(OC(F)(F)F)c2F)N=C1c1ccc(Cl)c(Cl)c1 (single isomer, unassigned) [Example 21.1]
Output: satisfied

Input: IC50 under 200 nM? Item: CCN(C(=O)[C@H]1C[C@@H](F)CN1)C1CN(/C(=N\C#N)Nc2cccc(OC(F)F)c2)N=C1c1ccc(Cl)c(C)c1 (mixture of isomers) [Example 38]
Output: not satisfied

Input: Record CCCN(C(=O)[C@H]1CCCN1)C1CN(/C(=N\C#N)Nc2cccc(OC(F)F)c2)N=C1c1ccc(Cl)c(C)c1 (mixture of isomers) : is its IC50 strictly below 200 nM?
Output: satisfied

Input: Does the reported IC50 of the following compound sit strictly below 200 nM? N#C/N=C(/Nc1cccc(OC(F)F)c1)N1CC(NC(=O)[C@@H]2CCC[C@@H]2N)C(c2ccc(Cl)c(Cl)c2)=N1 (relative stereo)
Output: satisfied
